The reported numbers originate from patent US20050003420.

SYSTEM: T1, BsoBI D246R (UniProt P70985 P70985:1-323, D246R)
T1 sequence: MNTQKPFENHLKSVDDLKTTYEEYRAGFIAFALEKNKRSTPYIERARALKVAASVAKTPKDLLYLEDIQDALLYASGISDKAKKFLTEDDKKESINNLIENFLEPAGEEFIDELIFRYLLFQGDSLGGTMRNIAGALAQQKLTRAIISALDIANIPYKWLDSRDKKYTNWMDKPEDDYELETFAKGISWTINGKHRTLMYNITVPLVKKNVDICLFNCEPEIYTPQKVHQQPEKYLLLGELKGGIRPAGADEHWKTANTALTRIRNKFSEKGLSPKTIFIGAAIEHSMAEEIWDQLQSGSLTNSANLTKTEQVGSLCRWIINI
METHOD NOTES: filter; 4 mM CaCl2; ±20
ASSAY CONTEXT: chain copies: 2 inferred; label: 33P 5' end
pKd: −log10 of the molar value.
REPORTED PROPERTY: pKd

BINDER: S1 (CTCGAG) (dsDNA) DNA 1: GAGTGTTATGGGTAGCTCGAGTGAAGTGGGAATATC DNA 2: GATATTCCCACTTCACTCGAGCTACCCATAACACTC
RESULT NUMBER: 10.05
